molecular target: Fibroblast growth factor 22 (Homo sapiens) (UniProt Q9HCT0); assay: binders of human FGF22 protein, primary screen, FGF22 synaptogenesis inhibitor project, biophysical, thermal shift, single point (AID 651658); details: recombinant FGF22 thermal shift, SYPRO orange fluorescence; at 9.99 µM; percent of sucrose octasulfate shift, DMSO zero
Sequence (Q9HCT0 whole entry, looked up): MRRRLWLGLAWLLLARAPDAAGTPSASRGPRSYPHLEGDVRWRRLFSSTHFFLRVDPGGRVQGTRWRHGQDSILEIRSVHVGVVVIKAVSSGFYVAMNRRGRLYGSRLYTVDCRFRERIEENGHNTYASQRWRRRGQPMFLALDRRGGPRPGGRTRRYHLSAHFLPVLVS
The campaign covered roughly 340,000 compounds. About 5,100 (1.5%) were called active.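 How the source made its calls: active means mean Tm shift, scaled 0 neutral to 100 positive control, at about 1.3% or above, every replicate too (limit read from the data); inconclusive means no clear call, values can overlap the other calls; inactive means the rest.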 The full list was thinned out, with actives kept by preference.
Outcome codes: active, inactive

>>> class_label("CN1C(=O)c2cc(NC(=O)c3ccccc3)ccc2OC[C@H]2O[C@@H](CC(=O)O)CC[C@@H]21")
"inactive"
>>> class_label("O=C(Cc1ccccc1)N1CC2(C1)[C@H](c1ccccc1)[C@@H](CO)N2C(=O)c1cccnc1")
"inactive"
>>> class_label("COc1ccc(CCNC(=O)c2c(C)nn(-c3ccccc3)c2Cl)cc1")
"inactive"
>>> class_label("CCc1cc2cc(OC)ccc2nc1SCC(=O)Nc1cc(OC)c(OC)cc1C(=O)O")
"active"
>>> class_label("Cc1ccc(NC(=O)C(=O)NCC2CCN(C(=O)c3cccc([N+](=O)[O-])c3)CC2)cc1")
"inactive"
>>> class_label("C[C@@H](NC(=O)C[C@H]1C=C[C@H](NC(=O)C2CCOCC2)[C@H](CO)O1)c1ccccc1")
"inactive"
>>> class_label("O=C(C[C@@H]1C[C@H]2c3cc(NC(=O)NC4CCCC4)ccc3O[C@H]2[C@@H](CO)O1)NC1CCCCC1")
"inactive"
>>> class_label("COc1ccc(C2c3c(C)nn(-c4ccccc4)c3NC(=O)N2c2ccccc2)cc1 (configuration not stated)")
"active"
>>> class_label("Clc1ccc(-c2cccc3nccn23)cc1")
"inactive"
>>> class_label("C[C@H](CO)N1C[C@H](C)[C@H](CN(C)Cc2ccccc2)OCCCC[C@H](C)Oc2ccc(NC(=O)CCC(F)(F)F)cc2C1=O")
"inactive"
>>> class_label("C[C@H](CO)N1C[C@H](C)[C@H](CN(C)S(=O)(=O)c2cccs2)OCCCC[C@H](C)Oc2ccc(NC(=O)CCCN(C)C)cc2C1=O")
"inactive"
>>> class_label("N#C[C@@H]1[C@@H](c2ccccc2)[C@H](CO)N1C(=O)c1cc(Cl)cc(Cl)c1")
"inactive"
>>> class_label("C[C@@H]1CN([C@@H](C)CO)C(=O)c2cccc(NC(=O)Nc3ccc(C(F)(F)F)cc3)c2O[C@@H]1CN(C)S(=O)(=O)c1ccc(F)cc1")
"inactive"
>>> class_label("O=C(NCCO)c1cccc(-c2cccc3nccn23)c1")
"inactive"
>>> class_label("O=C(C[C@H]1C[C@H]2c3cc(NC(=O)Nc4ccc(F)cc4)ccc3O[C@H]2[C@@H](CO)O1)NCC1CC1")
"inactive"
>>> class_label("Cc1ccc(C(=O)NNC(=O)CSc2nnc3ccccn23)cc1")
"inactive"
>>> class_label("COCc1[nH]nc2c1C(c1ccccc1)N(c1ccccc1)C2=O (configuration not stated)")
"inactive"
>>> class_label("O=C(c1ccncc1)c1ccc([N+](=O)[O-])cc1")
"active"
>>> class_label("C[C@H](CO)N1C[C@H](C)[C@H](CN(C)Cc2ccc(C(=O)O)cc2)OCc2cn(nn2)CCCC1=O")
"inactive"
>>> class_label("O=C(Nn1cnnc1)c1ccc([N+](=O)[O-])cc1")
"inactive"
>>> class_label("C[C@@H]1CN([C@@H](C)CO)S(=O)(=O)c2ccc(/C=C/c3ccccc3)cc2O[C@H]1CN(C)C(=O)C1CC1")
"inactive"
>>> class_label("COc1ccc(NC(=O)CSc2nc(SC)ns2)c(OC)c1")
"inactive"
>>> class_label("Cc1ccc(C(=O)C[n+]2cc(-c3ccccc3)n3c2CCCCC3)cc1")
"active"
>>> class_label("Cc1ccc(S(=O)(=O)N(C)C[C@@H]2Oc3ccc(NC(=O)c4ccncc4)cc3CC(=O)N([C@H](C)CO)C[C@H]2C)cc1")
"inactive"
>>> class_label("O=C(C[C@@H]1C[C@H]2c3cc(NC(=O)Nc4ccccc4F)ccc3O[C@H]2[C@@H](CO)O1)NC1CCCCC1")
"inactive"
>>> class_label("Cc1cc(C(=O)COC(=O)C2CC2)c(C)n1-c1ccc(F)cc1")
"inactive"
>>> class_label("S=C(c1ccc(-c2ccccc2)o1)N1CCCCC1")
"active"
>>> class_label("Cc1ccc(-n2c(C)cc(C(=O)CSc3nnc4ccccn34)c2C)cc1")
"active"
>>> class_label("CCC(CC)NC(=O)/C=C/c1cccc([N+](=O)[O-])c1")
"inactive"
>>> class_label("COc1ccc(-n2c(C)cc(C(=O)COC(=O)c3cc(OC)c(OC)cc3NC(=O)c3cccs3)c2C)cc1")
"active"
>>> class_label("O=C(C[C@@H]1CC[C@@H]2[C@H](COC[C@@H](O)CN2Cc2ccccc2)O1)NCCc1ccccc1")
"inactive"
>>> class_label("CCc1ccccc1NC(=O)Cc1cn(C)c2ccccc12")
"active"
>>> class_label("CN1CCN(C(=O)c2ccc(-c3ccc(Br)cc3)o2)CC1")
"inactive"
>>> class_label("COc1ccc2c3c([nH]c2c1)[C@H](CO)N(Cc1ccccc1Cl)CC31CN(C(=O)C2CC2)C1")
"inactive"
>>> class_label("O=C(C[C@H]1C[C@@H]2c3cc(NC(=O)Nc4ccc(C(F)(F)F)cc4)ccc3O[C@@H]2[C@@H](CO)O1)NCC1CC1")
"active"
>>> class_label("Clc1ccc(C[n+]2cc(-c3ccccc3)n3c2CCC3)cc1")
"inactive"
>>> class_label("O=C(C[C@H]1C[C@H]2c3cc(NC(=O)Nc4ccc(F)cc4)ccc3O[C@H]2[C@H](CO)O1)NCC1CC1")
"inactive"

src = PubChem BioAssay AID651658
